# System: P. aeruginosa AUMC-Pa-4
# METHOD: microbe, parasite or virus in culture
# CONDITION SUMMARY: strain AUMC-Pa-4; with D-11 at MICbc 4; unit not given
MEASUREMENT KIND: MICac: MIC of the antibiotic in the combination

Ask: Need MICac: MIC of the antibiotic in the combination of CO[C@H]1/C=C/O[C@@]2(C)Oc3c(C)c(O)c4c(O)c(c(/C=N/N5CCN(C6CCCC6)CC5)c(O)c4c3C2=O)NC(=O)/C(C)=C\C=C\[C@H](C)[C@H](O)[C@@H](C)[C@@H](O)[C@@H](C)[C@H](OC(C)=O)[C@@H]1C , thanks.
Result: 0.5

Ask: Requested read-out: MICac: MIC of the antibiotic in the combination. Entry: CO[C@@H]1[C@@H](OC(N)=O)[C@@H](O)[C@H](Oc2ccc3c(O)c(NC(=O)c4ccc(O)c(CC=C(C)C)c4)c(=O)oc3c2C)OC1(C)C
Result: >128/128

Ask: Consider the compound shown here: CC[C@H]1OC(=O)[C@H](C)[C@@H](O[C@H]2C[C@@](C)(OC)[C@@H](O)[C@H](C)O2)[C@H](C)[C@@H](O[C@@H]2O[C@H](C)C[C@H](N(C)C)[C@H]2O)[C@](C)(O)C[C@@H](C)C(=O)[C@H](C)[C@@H](O)[C@]1(C)O What is its recorded MICac: MIC of the antibiotic in the combination?
Result: 32

Ask: Look up MICac: MIC of the antibiotic in the combination: CC1(C)S[C@@H]2[C@H](NC(=O)C(C(=O)O)c3ccccc3)C(=O)N2[C@H]1C(=O)O (stereo partly shown)
Result: 64

Ask: // MICac: MIC of the antibiotic in the combination lookup, key: C[C@@H]1O[C@@H]1P(=O)(O)O
Result: >128/>128

Ask: Item under review: C[C@H]1COc2c(N3CCN(C)CC3)c(F)cc3c(=O)c(C(=O)O)cn1c23 . Reported MICac: MIC of the antibiotic in the combination?
Result: 0.25

Ask: Tell me the measured MICac: MIC of the antibiotic in the combination of CC[C@H]1OC(=O)[C@H](C)[C@@H](O[C@H]2C[C@@](C)(OC)[C@@H](O)[C@H](C)O2)[C@H](C)[C@@H](O[C@@H]2O[C@H](C)C[C@H](N(C)C)[C@H]2O)[C@](C)(O)C[C@@H](C)CN(C)[C@H](C)[C@@H](O)[C@]1(C)O , please.
Result: 32

* * *

# System: clinical P. aeruginosa isolates
# METHOD: microbe, parasite or virus in culture
# CONDITION SUMMARY: Pseudomonas aeruginosa, 18 h, read-out: Antibiotic sensibility (MIC) of clinical P. aeruginosa isolate AUMC-Pa-1, strain AUMC-Pa-1; antibiotic alone
MEASUREMENT KIND: MIC (µM)
Give your result in µM as a bare value.

Ask: I have this molecule here, CC[C@H]1OC(=O)[C@H](C)[C@@H](O[C@H]2C[C@@](C)(OC)[C@@H](O)[C@H](C)O2)[C@H](C)[C@@H](O[C@@H]2O[C@H](C)C[C@H](N(C)C)[C@H]2O)[C@](C)(O)C[C@@H](C)CN(C)[C@H](C)[C@@H](O)[C@]1(C)O , and I need its recorded MIC.
Result: 128

Ask: // MIC lookup, key: C[C@@H](O)[C@H]1C(=O)N2C(C(=O)O)=C(S[C@@H]3CN[C@H](C(=O)N(C)C)C3)[C@H](C)[C@H]12
Result: 1

Ask: Which MIC reading was recorded for the molecule CO[C@H]1/C=C/O[C@@]2(C)Oc3c(C)c(O)c4c(O)c(c(/C=N/N5CCN(C6CCCC6)CC5)c(O)c4c3C2=O)NC(=O)/C(C)=C\C=C\[C@H](C)[C@H](O)[C@@H](C)[C@@H](O)[C@@H](C)[C@H](OC(C)=O)[C@@H]1C ?
Result: 16

Ask: // query MIC value for entry CN(C)c1ccc(O)c2c1C[C@H]1C[C@H]3[C@H](N(C)C)C(O)=C(C(N)=O)C(=O)[C@@]3(O)C(O)=C1C2=O
Result: 32

Ask: // query MIC value for entry CO/N=C(\C(=O)N[C@@H]1C(=O)N2C(C(=O)[O-])=C(C[N+]3(C)CCCC3)CS[C@H]12)c1csc(N)n1 [Cefepime]
Result: 8

Ask: Given the molecule [H]/N=C(/N)N[C@H]1[C@H](O)[C@@H](O)[C@H](O[C@@H]2O[C@@H](C)[C@](O)(C=O)[C@H]2O[C@@H]2O[C@@H](CO)[C@H](O)[C@@H](O)[C@@H]2NC)[C@@H](N/C(N)=N\[H])[C@@H]1O , what is its reported MIC?
Result: 16
